# Tested on: Salmonella typhimurium S-9
# Protocol description: In vitro antibacterial activity (MIC)
# Assay type: cell-based
# Setup conditions: Salmonella enterica; Salmonella typhimurium S-9; read-out: minimum inhibitory concentration (MIC)
Counter-ions that a name gives are not always drawn.
Each item that follows carries a reported MIC.
API: value field is a number in µg/mL; no unit string.

CN1CCN(c2ncc3c(=O)c(C(=O)N[C@@H](C(=O)N[C@@H]4C(=O)N5[C@@H]4SC(C)(C)[C@@H]5C(=O)O)c4ccc(O)cc4)c[nH]c3n2)CC1 [Compound A, sodium salt] = 0.2

Now look at this entry.
Challenge: May I ask what MIC has been recorded for CC1(C)S[C@@H]2[C@H](NC(=O)[C@H](NC(=O)c3c[nH]c4nc(N)ncc4c3=O)c3ccc(O)cc3)C(=O)N2[C@H]1C(=O)O [Compound G, sodium salt] ?
Response given: 1.56

====

# System: Salmonella typhimurium S-9
# Protocol description: In vitro antibacterial activity (MIC)
# Format: cell-based
# Setup conditions: Salmonella enterica; Salmonella typhimurium S-9; read-out: minimum inhibitory concentration (MIC)
Counter-ions that a name gives are not always drawn.
Each item that follows carries a reported MIC.
API: value field is a number in µg/mL; no unit string.

CC1(C)S[C@@H]2[C@H](NC(=O)[C@H](N)c3ccc(O)cc3)C(=O)N2[C@H]1C(=O)O [Compound M, sodium salt] = 0.78
CC1(C)S[C@@H]2[C@H](NC(=O)[C@H](NC(=O)c3c[nH]c4nc(N5CCN(C=O)CC5)ncc4c3=O)c3ccc(O)cc3)C(=O)N2[C@H]1C(=O)O [Compound 1, sodium salt] = 0.78

Challenge: Query for Salmonella typhimurium S-9: what MIC does the record show for CC(=O)N1CCN(c2ncc3c(=O)c(C(=O)N[C@@H](C(=O)N[C@@H]4C(=O)N5[C@@H]4SC(C)(C)[C@@H]5C(=O)O)c4ccc(O)cc4)c[nH]c3n2)CC1 [Compound 2, sodium salt] ?
Response given: 0.78

====

# System: Proteus mirabilis P-2381
# Protocol description: In vitro antibacterial activity (MIC)
# Assay type: cell-based
# Setup conditions: P2381; Proteus mirabilis P-2381; read-out: minimum inhibitory concentration (MIC)
Where a name gives a salt, the structure may show the parent alone.
Each item that follows carries a reported MIC.
API: value field is a number in µg/mL; no unit string.

Please review the following examples before continuing.
CC(=O)N1CCN(c2ncc3c(=O)c(C(=O)N[C@@H](C(=O)N[C@@H]4C(=O)N5[C@@H]4SC(C)(C)[C@@H]5C(=O)O)c4ccc(O)cc4)c[nH]c3n2)CC1 [Compound 2, sodium salt] = 6.25
CN1CCN(c2ncc3c(=O)c(C(=O)N[C@@H](C(=O)N[C@@H]4C(=O)N5[C@@H]4SC(C)(C)[C@@H]5C(=O)O)c4ccc(O)cc4)c[nH]c3n2)CC1 [Compound A, sodium salt] = 3.13
CC1(C)S[C@@H]2[C@H](NC(=O)[C@H](N)c3ccc(O)cc3)C(=O)N2[C@H]1C(=O)O [Compound M, sodium salt] = 1.56

Now look at this entry.
Challenge: May I ask what MIC has been recorded for CCN1CCN(C(=O)N[C@@H](C(=O)N[C@@H]2C(=O)N3[C@@H]2SC(C)(C)[C@@H]3C(=O)O)c2ccccc2)C(=O)C1=O [Compound H, sodium salt] ?
Response given: 0.78

====

# Protocol description: Plasma level in mice
# Type: in vivo, male mice (ddY)
# Setup conditions: mouse, plasma; 25 mg/kg, im, single dose; 3 hour; read-out: Average plasma conc.
Counter-ions that a name gives are not always drawn.
Result type: concentration at 3 h (µg/mL)
API: value field is a number in µg/mL; no unit string.

Challenge: May I ask what concentration at 3 h has been recorded for CC1(C)S[C@@H]2[C@H](NC(=O)[C@H](NC(=O)c3c[nH]c4nc(N5CCN(C=O)CC5)ncc4c3=O)c3ccc(O)cc3)C(=O)N2[C@H]1C(=O)O [Compound 1, sodium salt] ?
Response given: 4.01

====

# Protocol description: Urinary excretion in mice
# Format: in vivo, male mice (ddY)
# Setup conditions: mouse, urine, im, 25 mg/kg, im, single dose; column 3-6 hour; read-out: cr: cumulative urinary recovery
Where a name gives a salt, the structure may show the parent alone.
Result type: dose excreted at 6 h (%)
API: value field is a number in %; no unit string.

Challenge: May I ask what dose excreted at 6 h has been recorded for CC1(C)S[C@@H]2[C@H](NC(=O)[C@H](NC(=O)c3c[nH]c4nc(N5CCN(C=O)CC5)ncc4c3=O)c3ccc(O)cc3)C(=O)N2[C@H]1C(=O)O [Compound 1, sodium salt] ?
Response given: 30

====

# Protocol description: Urinary excretion in mice
# Assay type: in vivo, male mice (ddY)
# Setup conditions: mouse, urine; 25 mg/kg, im, single dose; 6-24 hour; read-out: c: urinary concentration
# Experimental: The contents of the vials (No. A) obtained in Example 17 were dissolved in deionized water to form solutions of penicillin compound 1 in a concentration of 25 mg/ml. The solutions were administered in a dose of 25 mg/kg (im) to four male mice (ddY) having an average body weight of 25 g. After given periods of time, the urine was collected from the four mice, and the concentration of the penicillin compound 1 in the urine was determined. […]
Counter-ions that a name gives are not always drawn.
Result type: concentration at 24 h (ng/mL)
API: value field is a number in ng/mL; no unit string.

Challenge: May I ask what concentration at 24 h has been recorded for CC1(C)S[C@@H]2[C@H](NC(=O)[C@H](NC(=O)c3c[nH]c4nc(N5CCN(C=O)CC5)ncc4c3=O)c3ccc(O)cc3)C(=O)N2[C@H]1C(=O)O [Compound 1, sodium salt] ?
Response given: 7250

====

Each item that follows carries a reported MIC.
# Test system: Pseudomonas aeruginosa Tsuchijima
# Protocol description: In vitro antibacterial activity (MIC)
# Assay type: cell-based
# Setup conditions: Pseudomonas aeruginosa Tsuchijima; read-out: minimum inhibitory concentration (MIC)
Counter-ions that a name gives are not always drawn.
API: value field is a number in µg/mL; no unit string.

Please review the following examples before continuing.
CC1(C)S[C@@H]2[C@H](NC(=O)[C@H](NC(=O)c3c[nH]c4nc(N5CCN(C=O)CC5)ncc4c3=O)c3ccc(O)cc3)C(=O)N2[C@H]1C(=O)O [Compound 1, sodium salt] = 0.78
CC(=O)N1CCN(c2ncc3c(=O)c(C(=O)N[C@@H](C(=O)N[C@@H]4C(=O)N5[C@@H]4SC(C)(C)[C@@H]5C(=O)O)c4ccc(O)cc4)c[nH]c3n2)CC1 [Compound 2, sodium salt] = 0.78

Now look at this entry.
Challenge: Query for Pseudomonas aeruginosa Tsuchijima: what MIC does the record show for CN(C)c1ncc2c(=O)c(C(=O)N[C@@H](C(=O)N[C@@H]3C(=O)N4[C@@H]3SC(C)(C)[C@@H]4C(=O)O)c3ccc(O)cc3)c[nH]c2n1 ?
Response given: 1.56

====

# Tested on: Serratia mercescens IFO 3736
# Protocol description: In vitro antibacterial activity (MIC)
# Type: cell-based
# Setup conditions: IFO3736; Serratia mercescens IFO 3736; read-out: minimum inhibitory concentration (MIC)
Structures can show the parent of a compound that is named as a salt.
Result type: MIC (µg/mL)
API: value field is a number in µg/mL; no unit string.

Please review the following examples before continuing.
CN1CCN(c2ncc3c(=O)c(C(=O)N[C@@H](C(=O)N[C@@H]4C(=O)N5[C@@H]4SC(C)(C)[C@@H]5C(=O)O)c4ccc(O)cc4)c[nH]c3n2)CC1 [Compound A, sodium salt] = 3.13
CC(=O)N1CCN(c2ncc3c(=O)c(C(=O)N[C@@H](C(=O)N[C@@H]4C(=O)N5[C@@H]4SC(C)(C)[C@@H]5C(=O)O)c4ccc(O)cc4)c[nH]c3n2)CC1 [Compound 2, sodium salt] = 6.25

Now look at this entry.
Challenge: May I ask what MIC has been recorded for CNc1ncc2c(=O)c(C(=O)N[C@@H](C(=O)N[C@@H]3C(=O)N4[C@@H]3SC(C)(C)[C@@H]4C(=O)O)c3ccc(O)cc3)c[nH]c2n1 [Compound F, sodium salt] ?
Response given: 12.5

====

# System: Salmonella enteritidis No. 1891
# Protocol description: In vitro antibacterial activity (MIC)
# Assay type: cell-based
# Setup conditions: Salmonella enterica; Salmonella enteritidis No. 1891; read-out: minimum inhibitory concentration (MIC)
Where a name gives a salt, the structure may show the parent alone.
Result type: MIC (µg/mL)
API: value field is a number in µg/mL; no unit string.

Please review the following examples before continuing.
CN(C)c1ncc2c(=O)c(C(=O)N[C@@H](C(=O)N[C@@H]3C(=O)N4[C@@H]3SC(C)(C)[C@@H]4C(=O)O)c3ccc(O)cc3)c[nH]c2n1 = 0.78
CNc1ncc2c(=O)c(C(=O)N[C@@H](C(=O)N[C@@H]3C(=O)N4[C@@H]3SC(C)(C)[C@@H]4C(=O)O)c3ccc(O)cc3)c[nH]c2n1 [Compound F, sodium salt] = 1.56
CC1(C)S[C@@H]2[C@H](NC(=O)[C@H](NC(=O)c3c[nH]c4nc(N)ncc4c3=O)c3ccc(O)cc3)C(=O)N2[C@H]1C(=O)O [Compound G, sodium salt] = 0.78
CN1CCN(c2ncc3c(=O)c(C(=O)N[C@@H](C(=O)N[C@@H]4C(=O)N5[C@@H]4SC(C)(C)[C@@H]5C(=O)O)c4ccc(O)cc4)c[nH]c3n2)CC1 [Compound A, sodium salt] = 0.2

Challenge: May I ask what MIC has been recorded for CC(=O)N1CCN(c2ncc3c(=O)c(C(=O)N[C@@H](C(=O)N[C@@H]4C(=O)N5[C@@H]4SC(C)(C)[C@@H]5C(=O)O)c4ccc(O)cc4)c[nH]c3n2)CC1 [Compound 2, sodium salt] ?
Response given: 0.78
